- target of assay: Human DR5 (Homo sapiens, UniProt O14763)
- experiment summary: Binding affinity of antibody to human DR5 (BIAcore, CM5 chip)
- study conditions: equilibrium dissociation constant, Human DR5
Each entry below lists one item and its recorded Kd value.
The response must be a number in nM with no trailing unit.

Query :: What does the data say about its Kd? Entry: DA31: humanized or deimmunized variant of parental clone D0; CDRs SEQ ID NO 1, 2, 7 / 4, 10, 13 (antibody, V domains shown) VH: AVTLDESGGGLQTPGGGLSLVCKGSGFTFSSFNMLWVRQAPGKGLEWVAGIGKSDRYTGYGSAVKGRATISRDDGQSTARLQMNSLRAEDTGTYYCVKDAGSGCGSGGWTGACIDTWGHGTEVIVSS VL: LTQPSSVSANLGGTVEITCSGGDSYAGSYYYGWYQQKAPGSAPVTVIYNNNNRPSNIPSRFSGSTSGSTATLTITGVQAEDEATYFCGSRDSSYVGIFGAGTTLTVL
Result :: 0.0706

Query :: And the next one, DA30: humanized or deimmunized variant of parental clone D0; CDRs SEQ ID NO 1, 2, 7 / 4, 10, 13 (antibody, V domains shown) VH: AVTLDESGGGLQTPGGGLSLVCKGSGFTFSSFNMLWVRQAPGKGLEWVAGIGKSDRYTGYGSAVKGRATISRDDGQSTAYLQMNSLRAEDTGTYYCVKDAGSGCGSGGWTGACIDTWGHGTEVIVSS VL: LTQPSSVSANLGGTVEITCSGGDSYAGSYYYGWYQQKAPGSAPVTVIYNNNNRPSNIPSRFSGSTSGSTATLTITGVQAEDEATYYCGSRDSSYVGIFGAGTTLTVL ?
Result :: 0.0774
